# ASSAY_PROTOCOL: Pharmacokinetic study following intravenous and oral administration, LC-MS/MS of plasma
# Format: in vivo, male Sprague Dawley rat
# TEST_SETTINGS: male, Sprague-Dawley, rat, plasma, po, 1 mg/kg, oral 1 mg/kg, 2 h, individual animals 004M, 005M, 006M, read-out: plasma concentration
OBSERVABLE: level at 2 h
Please provide the amount together with its unit, number first.

Query :: Returns the measured level at 2 h for the input compound. Input: C[C@H](O)[C@@H](N)C(=O)N[C@@H](C(=O)N[C@H](CC(N)=O)C(=O)N[C@H](Cc1ccc(O)cc1)C(=O)N[C@@H](C(=O)O)[C@H](C)O)[C@H](C)O
Result :: 12 ng/mL

###

# ASSAY_PROTOCOL: Pharmacokinetic study following intravenous and oral administration, LC-MS/MS of plasma
# Format: in vivo, male Sprague Dawley rat
# TEST_SETTINGS: male, Sprague-Dawley, rat, plasma, po, 1 mg/kg, oral 1 mg/kg, 8 h, individual animals 004M, 005M, 006M, read-out: plasma concentration
OBSERVABLE: level at 8 h (ng/mL)
Numeric only. Scale: ng/mL

Query :: Returns the measured level at 8 h for the input compound. Input: C[C@H](O)[C@@H](N)C(=O)N[C@@H](C(=O)N[C@H](CC(N)=O)C(=O)N[C@H](Cc1ccc(O)cc1)C(=O)N[C@@H](C(=O)O)[C@H](C)O)[C@H](C)O [RAP-103, All-D-TTNYT]
Result :: 6.67

###

# ASSAY_PROTOCOL: Pharmacokinetic study following intravenous and oral administration, LC-MS/MS of plasma
# Format: in vivo, male Sprague Dawley rat
# TEST_SETTINGS: male, Sprague-Dawley, rat, plasma, po, 1 mg/kg, oral 1 mg/kg, 0.5 h, individual animals 004M, 005M, 006M, read-out: plasma concentration
OBSERVABLE: level at 0.5 h

Query :: Returns the measured level at 0.5 h for the input compound. Input: C[C@H](O)[C@@H](N)C(=O)N[C@@H](C(=O)N[C@H](CC(N)=O)C(=O)N[C@H](Cc1ccc(O)cc1)C(=O)N[C@@H](C(=O)O)[C@H](C)O)[C@H](C)O
Result :: 10.2 ng/mL
